Where do these numbers come from? They come from PubChem BioAssay.

assay.procedure: OD615 S. cerevisiae growth inhibition, permissive medium, pilot counter-assay, permissive growth control for S. cerevisiae lifespan shortening project (AID 705)
settings: OD615, 24 h, at 10 µM, stronger effect = higher value
Items are presented alongside their recorded growth inhibition.
Reply numerically in %, unit not repeated.

Solved cases (5 shown):
Q: Give growth inhibition for the following molecule: O=C(CSCC(=O)N1CCOCC1)Nc1ccccc1
A: -11.4

Q: Answer with the recorded growth inhibition of CN(C)S(=O)(=O)c1ccc2c(c1)c(=O)c(C(=O)N1CCN(c3ccccn3)CC1)cn2C only.
A: -5.42

Q: Output growth inhibition of Cc1ccc(C(C)C)c(OCC(=O)N2CCOCC2)c1
A: -10.1

Q: Name the recorded growth inhibition of the item COc1ccc(NS(=O)(=O)c2ccc(OC)c(OC)c2)cc1OC in your answer.
A: -7.13

Q: Supply growth inhibition value. Item: COc1ccc(OCC(=O)Nc2cc(-c3nn4c(C)nnc4s3)ccc2C)cc1
A: 0.16

Continuing:
Q: Give the reported value of growth inhibition for this record: Cc1cc(C)nc(SCCCn2c(=O)[nH]c3ccccc32)n1
A: -6.43

Q: Respond only with growth inhibition recorded for COc1cccc(NS(=O)(=O)c2cn(C)c(=O)n(C)c2=O)c1
A: -11

Q: Give a short answer stating reported growth inhibition for CC(C)(C)n1nc2c(c1NC(=O)Cc1cccs1)CSC2 .
A: -8.2
